tgt: IRAK4 (Homo sapiens)
Construct: endogenous in cells; host or cells: THP-1 cells
testSummary: ALE THP1 HTRF (Advanced Lipoxidation End Product THP1 Homogeneous Time Resolved Fluorescence)
Format: cell-based
protocolConditions: THP1 cells
Experimental: For Homogenous Time Resolved Fluorescence (HTRF) assays, a Cisbio HTRF kit was used, which included: Lysis Buffer #1 4×, Blocking Reagent #3 100×, 20× Antibody 1 (Anti-IRAK4 d2), 20× Antibody 2 (Anti-IRAK4 k), and Detection Buffer. 4× Lysis Buffer was stored at 4° C. […] Cells were lysed at room temperature for 45 min with shaking. […] The samples were analyzed by a plate reader (Envision, PerkinElmer) using the Desnor 384 HTRF program.
readoutName: ALE THP1 HTRF YMIN

molecule="CC([C@H]1CC[C@H](NC(=O)c2cnc(-n3ncc4cc(C#N)cnc43)cc2NC2CCCC2)CC1)N1CCN(c2ccc3c(c2)C(=O)N(C2CCC(=O)NC2=O)C3)CC1 (stereo partly drawn) [P-36]" tgt="IRAK4 (Homo sapiens)" readoutname="ALE THP1 HTRF YMIN" val=10.7%
molecule="O=C1CCC(c2ccc(N3CCN(CC[C@H]4CC[C@H](NC(=O)c5cnc(-n6ncc7cc(Cl)cnc76)cc5NC5CC5)CC4)CC3)cc2)C(=O)N1 (stereo partly drawn) [P-114]" tgt="IRAK4 (Homo sapiens)" readoutname="ALE THP1 HTRF YMIN" val=46.1%
molecule="N#Cc1cnc2c(cnn2-c2cc(NC3CC3)c(C(=O)NC3CCC(CCN4CCN(c5ccc(C6CCC(=O)NC6=O)nc5)CC4)CC3)cn2)c1 (stereo not drawn) [P-85]" tgt="IRAK4 (Homo sapiens)" readoutname="ALE THP1 HTRF YMIN" val=11.7%

---

Let's look at some compounds and their measured LVL THP1 HTRF YMIN.
tgt: IRAK4 (Homo sapiens, UniProt Q9NWZ3)
Construct: endogenous in cells; host or cells: THP-1 cells
testSummary: LVL THP1 HTRF (THP1 Homogeneous Time Resolved Fluorescence)
Assay type: cell-based
protocolConditions: THP1 cells, 18 h incubation with compound
readoutName: LVL THP1 HTRF YMIN (%)

compound="C[C@H](C#N)Nc1cc(-n2ncc3cc(C#N)cnc32)ncc1C(=O)N[C@H]1CC[C@H](CCN2CCN(c3ccc([C@@]4(C)CCC(=O)NC4=O)cn3)[C@@H](C)C2)CC1 (single isomer, unassigned)" readoutunit=% val=6.0
compound="CC(F)(F)CNc1cc(-n2ncc3cc(C#N)c(N)nc32)ncc1C(=O)N[C@H]1CC[C@H](CCN2CCN(c3ccc(C4CCC(=O)NC4=O)cc3)CC2)CC1 (stereo partly drawn)" readoutunit=% val=1.5
compound="C[C@H](C#N)Nc1cc(-n2ncc3cc(C#N)c(N)nc32)ncc1-n1cc([C@H]2CC[C@H](CCN3CCN(c4ccc([C@@]5(C)CCC(=O)NC5=O)nn4)CC3)CC2)nn1 (single isomer, unassigned) [P-308]" readoutunit=% val=3.5

---

tgt: IRAK4 (Homo sapiens)
Construct: endogenous in cells; host or cells: THP-1 cells
Sequence (Q9NWZ3 1-460): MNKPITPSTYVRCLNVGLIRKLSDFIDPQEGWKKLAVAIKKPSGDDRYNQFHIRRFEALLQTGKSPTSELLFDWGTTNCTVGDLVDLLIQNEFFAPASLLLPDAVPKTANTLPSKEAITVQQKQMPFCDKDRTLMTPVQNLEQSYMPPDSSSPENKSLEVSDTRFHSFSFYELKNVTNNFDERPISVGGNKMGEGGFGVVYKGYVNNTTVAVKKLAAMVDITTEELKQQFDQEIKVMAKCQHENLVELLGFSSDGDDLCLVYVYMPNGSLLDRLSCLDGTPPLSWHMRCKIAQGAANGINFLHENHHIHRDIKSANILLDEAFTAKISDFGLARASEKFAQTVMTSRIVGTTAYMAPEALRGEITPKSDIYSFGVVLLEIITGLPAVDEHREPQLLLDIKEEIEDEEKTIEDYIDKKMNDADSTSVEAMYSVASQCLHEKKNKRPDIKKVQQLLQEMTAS
testSummary: LVL THP1 HTRF (THP1 Homogeneous Time Resolved Fluorescence)
Format: cell-based
protocolConditions: THP1 cells, 18 h incubation with compound
Method: Cell culture media was prepared in a tissue culture hood in a sterile environment by adding 10% FBS and 1% Penicillin Streptomycin to 500 mL no phenol red RPMI 1640 media. The media was filtered through a Nalgene Bottle Top Filter and stored at 4° C. For Homogenous Time Resolved Fluorescence (HTRF) assays, a Cisbio HTRF kit was used, which included: Lysis Buffer #1 4×, Blocking Reagent #3 100×, 20× Antibody 1 (Anti-IRAK4 d2), 20× Antibody 2 (Anti-IRAK4 k), and Detection Buffer. […]
readoutName: LVL THP1 HTRF YMIN

molecule="C[C@H](C#N)Nc1cc(-n2ncc3cc(C#N)c(N)nc32)ncc1-n1cc([C@H]2CC[C@H](CCN3[C@H](C)CN(c4ccc([C@@]5(C)CCC(=O)NC5=O)cn4)C[C@H]3C)CC2)nn1 (single isomer, unassigned) [P-255]" tgt="IRAK4 (Homo sapiens)" val=90.4%
molecule="C[C@H](C#N)Nc1cc(-n2ncc3cc(C#N)cnc32)ncc1-c1ncn(C2CCC(CCN3CCN(c4ccc(C5CCC(=O)NC5=O)cc4)CC3)CC2)n1 (stereo partly shown)" tgt="IRAK4 (Homo sapiens)" val=15.9%
molecule=C[C@@H]1CN(CC[C@H]2CC[C@H](c3cn(-c4cnc(-n5ncc6cc(C#N)cnc65)cc4NC4(C#N)CC4)nn3)CC2)CCN1c1ccc([C@@]2(C)CCC(=O)NC2=O)cc1 tgt="IRAK4 (Homo sapiens)" val=17.8%
molecule=C[C@H](C#N)Nc1cc(-n2ncc3cc(C#N)cnc32)ncc1-n1cc([C@H]2CC[C@H](CCN3CCN(c4ccc(N5CCC(=O)NC5=O)cn4)CC3)CC2)nn1 tgt="IRAK4 (Homo sapiens)" val=4.1%
molecule="C[C@H](C#N)Nc1cc(-n2ncc3cc(C#N)cnc32)ncc1C(=O)N[C@H]1CC[C@H](CCN2CCN(c3ccc(C4CCC(=O)NC4=O)cc3)C3(CCC3)C2)CC1 (stereo partly shown)" tgt="IRAK4 (Homo sapiens)" val=6.3%
molecule="C[C@H](C#N)Nc1cc(-n2ncc3cc(C#N)cnc32)ncc1-n1cc([C@H]2CC[C@](O)(CCN3CCN(c4ccc([C@@]5(C)CCC(=O)NC5=O)cc4)CC3)CC2)nn1 (single isomer, unassigned)" tgt="IRAK4 (Homo sapiens)" val=7.2%
molecule=C[C@H](C#N)Nc1cc(-n2ncc3cc(C#N)c(N4C[C@H]5C[C@@H]4CO5)nc32)ncc1-n1cc([C@H]2CC[C@H](CCN3CCN(c4ccc([C@@]5(C)CCC(=O)NC5=O)cc4)CC3)CC2)nn1 tgt="IRAK4 (Homo sapiens)" val=6.3%
molecule="C[C@H](C#N)Nc1cc(-n2ncc3cc(C#N)cnc32)ncc1-n1cc([C@H]2CC[C@H](CCN3CCC(c4ccc([C@@]5(C)CCC(=O)NC5=O)cc4)C(F)(F)C3)CC2)nn1 (single isomer, unassigned)" tgt="IRAK4 (Homo sapiens)" val=1.8%
molecule="C[C@H](C#N)Nc1cc(-n2ncc3cc(C#N)c(N)nc32)ncc1-n1cc([C@H]2CC[C@H](CCN3CCN(c4cnc([C@@]5(C)CCC(=O)NC5=O)nc4)CC3)CC2)nn1 (single isomer, unassigned) [P-264]" tgt="IRAK4 (Homo sapiens)" val=94.6%
molecule=C[C@H](C#N)Nc1cc(Nc2ncc(C#N)cc2F)ncc1-n1cc([C@H]2CC[C@H](CCN3CCN(c4ccc([C@@]5(C)CCC(=O)NC5=O)cc4)CC3)CC2)nn1 tgt="IRAK4 (Homo sapiens)" val=3.5%

---

tgt: IRAK4 (Homo sapiens)
Construct: endogenous in cells; host or cells: THP-1 cells
testSummary: LVL THP1 HTRF (THP1 Homogeneous Time Resolved Fluorescence)
Type: cell-based
protocolConditions: THP1 cells, 18 h incubation with compound, read-out: LVL THP1 HTRF EC50
Label key: Condition met means DC50 under 20 nM; Condition not met means DC50 of 20 nM or more.

compound=C[C@H](C#N)Nc1cc(Nc2ncc(C#N)cc2Cl)ncc1-n1cc([C@H]2CC[C@H](CCN3CCN(c4ccc([C@@]5(C)CCC(=O)NC5=O)cc4)CC3)CC2)nn1 tgt="IRAK4 (Homo sapiens)" class="Condition not met"
compound="C[C@H](C#N)Nc1cc(-n2ncc3cc(C#N)cnc32)ncc1-n1cc(C2CCC(CCN3CCN(c4ccc([C@]5(C)CCC(=O)NC5=O)cc4)CC3)CC2)nn1 (some centres unmarked)" tgt="IRAK4 (Homo sapiens)" class="Condition met"
compound=C[C@H](C#N)Nc1cc(-n2ncc3cc(C#N)cnc32)ncc1-n1cc([C@H]2CC[C@H](CCN3CCN(c4ccc5c(N6CCC(=O)NC6=O)nn(C)c5c4)CC3)CC2)nn1 tgt="IRAK4 (Homo sapiens)" class="Condition met"
compound="C[C@H](C#N)Nc1cc(-n2ncc3cnc(N)nc32)ncc1-n1cc([C@H]2CC[C@H](CCN3CCN(c4ccc(C5CCC(=O)NC5=O)cc4)CC3)CC2)nn1 (some centres unmarked)" tgt="IRAK4 (Homo sapiens)" class="Condition met"
compound="C[C@H](C#N)Nc1cc(-n2ncc3cc(C#N)cnc32)ncc1-n1cc([C@H]2CC[C@H](CCN3CC[C@H](c4ccc([C@@]5(C)CCC(=O)NC5=O)cc4)C[C@H]3C)CC2)nn1 (single isomer, unassigned)" tgt="IRAK4 (Homo sapiens)" class="Condition met"
